- assay summary: NCI Yeast Anticancer Drug Screen. Data for the sgs1 mgt1 strain (AID 161);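 further: 0% = growth of cultures given vehicle only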
- settings: S. cerevisiae sgs1 mgt1 strain, at 50.0 µM
- Experimental: Growth inhibition of yeast strains with defined genetic alterations is measured as a screen for potential anti-cancer activity. Selected strains with alterations in DNA damage repair or cell cycle control were exposed to compounds and growth inhibition was measured relative to vehicle treated controls. The strain used in this assay is sgs1 mgt1
The panel holds about 79,000 compounds, 15% with a hit somewhere; the sample as a whole holds those more often. The source made the active and inactive calls. No stated cut-off is given here; in the data, active means growth inhibition above about 70%; inactive means the rest.
# output must be one of label 1 (active), label 0 (inactive)

Observe how each entry below is paired with its result.
1) COc1cc([C@@H]2c3cc4c(cc3[C@](C)(O)[C@H]3COC(=O)[C@H]23)OCO4)cc(OC)c1OC ... label 0
2) Cc1nc2c(sc(=S)n2-c2ccccc2)c2nc3ccccc3n12 ... label 0
3) O=C1c2cccnc2C(=O)C2CC3=C(CCCC3)CC12 (stereo unspecified) ... label 1
4) NC(=S)N/N=C/c1ccc(F)cn1 ... label 0
5) O=C(Cc1ccccc1)NN1C(=O)/C(=C\c2ccc([N+](=O)[O-])cc2)SC1=Nc1ccccc1 ... label 0
6) CCOC(=O)C(=O)C1CCCC1=O (stereo unspecified) ... label 0
7) Cc1ncc(C(N)=O)c(N)n1 ... label 0
8) Cc1nnc(CC#N)n1NC(=O)CC#N ... label 0

Enquiry: Record request — test call for `Cn1c([N+](=O)[O-])cnc1/C=C1\CCc2cc(OCCN3CCCC3)ccc2C1=O`
Return: label 0

Enquiry: Please let me know the test result on file for `CCOc1ccc2ccc3ccccc3c2c1NC(C)=O` .
Return: label 0

Enquiry: Which outcome was entered for the compound `CN(C)c1ccc2c(c1)Cc1cc(N3C(=O)C=CC3=O)ccc1-2` in this test?
Return: label 1
